- assayInfo: Pharmacokinetics in female BALB/c nude mice bearing A375 xenografts, 1 day dosing (PK and PD study): plasma, tumor and brain concentrations, AUC
- Type: in vivo
- recordedConditions: mouse, plasma, po, 100 mg/kg, 100 mg/kg p.o. QD × 1 day; 8 h; read-out: Mean Concentration in Plasma ± SEM
recordedEndpoint: concentration at 8 h (µg/mL)

compound: CC(C)(C)c1nc(-c2cccc(NS(=O)(=O)c3c(F)cccc3F)c2F)c(-c2ccnc(N)n2)s1 [Dabrafenib, dabrafenib, reference compound]
recordedEndpoint: concentration at 8 h
experimentalResult: 0.0556

----------
- assayInfo: Pharmacokinetics after 21 days dosing in the efficacy study (plasma, tumor and brain concentrations; plasma AUC at steady state), Example 14
- Assay type: in vivo, female BALB/c nude mice
- recordedConditions: mouse, plasma, po; 5 mg/kg p.o. BID x 21 days; 10 h; mean ± SEM

compound: CCN(C)S(=O)(=O)Nc1ccc(F)c(Oc2ccc3ncn(C4CC5(CCN(C6CC7(C6)CN(c6cc8c(cc6F)c(N6CCC(=O)NC6=O)nn8C)C7)CC5)C4)c(=O)c3c2)c1C#N (stereo not shown)
concentration at 10 h / ng/mL: 2370

----------
- assayInfo: Pharmacokinetics in female BALB/c nude mice bearing A375 xenografts, 1 day dosing (PK and PD study): plasma, tumor and brain concentrations, AUC
- Assay type: in vivo
- recordedConditions: mouse, plasma, po, 2 mg/kg, 2 mg/kg p.o. TID × 1 day; post 1st dose; 1 h; read-out: Mean Concentration in Plasma ± SEM

chemicalString: CCN(C)S(=O)(=O)Nc1ccc(F)c(Oc2ccc3ncn([C@H]4COC5(CCN(C6CC7(C6)CN(c6cc8c(cc6F)c(N6CCC(=O)NC6=O)nn8C)C7)CC5)C4)c(=O)c3c2)c1C#N
concentration at 1 h (ng/mL): 3720

----------
- assayInfo: Pharmacokinetics after 21 days dosing in the efficacy study (plasma, tumor and brain concentrations; plasma AUC at steady state), Example 14
- Assay type: in vivo, female BALB/c nude mice
- recordedConditions: mouse, plasma, po; 10 mg/kg p.o. BID x 21 days; 8 h; mean ± SEM
- Procedure: Agents were tested in the A375 human melanoma xenografts. […] Dabrafenib, Compound 26 and Compound 141 in female BALB/c nude mice plasma (K2-EDTA), tumor and brain homogenate were analyzed by LC-MS/MS (Triple Quad 6500+ Low Mass). […]

chemicalString: CCN(C)S(=O)(=O)Nc1ccc(F)c(Oc2ccc3ncn([C@H]4COC5(CCN(C6CC7(C6)CN(c6cc8c(cc6F)c(N6CCC(=O)NC6=O)nn8C)C7)CC5)C4)c(=O)c3c2)c1C#N
concentration at 8 h, ng/mL: 10900

----------
- assayInfo: Pharmacokinetics in female BALB/c nude mice bearing A375 xenografts, 1 day dosing (PK and PD study): plasma, tumor and brain concentrations, AUC
- Type: in vivo
- recordedConditions: mouse, plasma, po, 5 mg/kg, 5 mg/kg p.o. BID × 1 day; post 1st dose; 2 h; read-out: Mean Concentration in Plasma ± SEM

compound: CCN(C)S(=O)(=O)Nc1ccc(F)c(Oc2ccc3ncn(C4CC5(CCN(C6CC7(C6)CN(c6cc8c(cc6F)c(N6CCC(=O)NC6=O)nn8C)C7)CC5)C4)c(=O)c3c2)c1C#N (stereo not shown)
unit: ng/mL
concentration at 2 h: 3650

This collection of values is drawn from patent US20260297060A1.
